- targetOrSystem: CDK2/Cyclin A (Homo sapiens, UniProt P24941)
- assayProcedure: Inhibition of CDK2/Cyclin A Retinoblastoma Kinase Activity
- Assay type: biochemical
- experimentalConditions: read-out: % inhibition of CDK2 (@ 0.05 μM), compound at 0.05 μM
Outcome: label 1 for inhibition at 0.05 µM of at least 80%; label 0 for anything lower.

Confirm if inhibition at 0.05 µM reported for the compound CSCCCNCCCS(=O)(=O)N1CCC(Nc2nc(N)c(C(=O)c3c(F)cccc3F)s2)CC1 [Example V127] is 80% or above.
label 1

Now the same for CC(CN(C)C)NCCCS(=O)(=O)N1CCC(Nc2nc(N)c(C(=O)c3c(F)cccc3F)s2)CC1 (centres unmarked) [Example V126]
label 1

Now the same for CCN(CC)CCCS(=O)(=O)N1CCC(Nc2nc(N)c(C(=O)c3c(F)cccc3F)s2)CC1 [Example V57]
label 0

Now the same for Nc1nc(NC2CCN(S(=O)(=O)CCCNC3CCCCC3)CC2)sc1C(=O)c1c(F)cccc1F [Example V72]
label 1

Here's the next entry for you.
Confirm if inhibition at 0.05 µM reported for the compound Nc1nc(NC2CCN(S(=O)(=O)CCCN3CCN(CCO)CC3)CC2)sc1C(=O)c1c(F)cccc1F [Example V34] is 80% or above.
label 0

* * *

- targetOrSystem: human CDK4 and genetically truncated (1-264) cyclin D3 (Homo sapiens)
- Sequence (P11802 whole entry, the tested form may be a part): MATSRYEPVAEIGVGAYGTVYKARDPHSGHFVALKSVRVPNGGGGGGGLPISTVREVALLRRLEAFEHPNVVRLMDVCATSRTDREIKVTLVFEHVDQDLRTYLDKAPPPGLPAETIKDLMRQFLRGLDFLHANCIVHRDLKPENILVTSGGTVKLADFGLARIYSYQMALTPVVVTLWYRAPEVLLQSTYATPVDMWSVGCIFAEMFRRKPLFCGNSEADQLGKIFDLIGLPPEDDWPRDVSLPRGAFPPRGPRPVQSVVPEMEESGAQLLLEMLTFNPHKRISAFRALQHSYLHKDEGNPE
- Sequence (P30281 1-264 partner): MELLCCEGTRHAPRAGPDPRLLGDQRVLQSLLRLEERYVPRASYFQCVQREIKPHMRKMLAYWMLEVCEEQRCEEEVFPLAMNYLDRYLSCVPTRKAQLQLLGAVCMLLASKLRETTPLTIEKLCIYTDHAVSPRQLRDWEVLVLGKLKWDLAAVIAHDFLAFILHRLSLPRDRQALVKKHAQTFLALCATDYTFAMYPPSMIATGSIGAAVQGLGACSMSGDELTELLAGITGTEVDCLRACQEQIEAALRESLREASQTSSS
- assayProcedure: Inhibition of CDK4/Cyclin D Retinoblastoma Kinase Activity
- Assay type: biochemical
- experimentalConditions: 0.03 μM compound; Table 4
reportedMetric: CDK4 % Inhibition at 0.03 μM (%)
Answers are plain numbers, in %.

Any idea what CDK4 % Inhibition at 0.03 μM was measured for N#Cc1cccc(C(=O)N2CCC(Nc3nc(N)c(C(=O)c4c(F)cccc4F)s3)CC2)c1 ?
72

Now the same for Nc1nc(NC2CCN(C(=O)c3ccc([N+](=O)[O-])cc3)CC2)sc1C(=O)c1c(F)cccc1F
61

Now the same for Nc1nc(NC2CCN(C(=O)Cc3ccccc3)CC2)sc1C(=O)c1c(F)cccc1F
30

Now the same for Nc1nc(NC2CCN(C(=O)c3cccc(Cl)c3)CC2)sc1C(=O)c1c(F)cccc1F
59

Now the same for Nc1nc(NC2CCN(C(=O)c3ccccc3)CC2)sc1C(=O)c1c(F)cccc1F
52

I need CDK4 % Inhibition at 0.03 μM for every entry listed below, if you could help.
1. CN(C(=O)N1CCC(Nc2nc(N)c(C(=O)c3c(F)cccc3F)s2)CC1)c1ccccc1
2. Nc1nc(NC2CCN(C(=O)c3ccccc3[N+](=O)[O-])CC2)sc1C(=O)c1c(F)cccc1F

1: 31; 2: 51

I need CDK4 % Inhibition at 0.03 μM for every entry listed below, if you could help.
1. CCCCCc1ccc(C(=O)N2CCC(Nc3nc(N)c(C(=O)c4c(F)cccc4F)s3)CC2)cc1
2. COC(=O)C(=O)N1CCC(Nc2nc(N)c(C(=O)c3c(F)cccc3F)s2)CC1

1. 45
2. 16

I need CDK4 % Inhibition at 0.03 μM for every entry listed below, if you could help.
1. N#Cc1ccc(C(=O)N2CCC(Nc3nc(N)c(C(=O)c4c(F)cccc4F)s3)CC2)cc1
2. Nc1nc(NC2CCN(C(=O)c3ccncc3)CC2)sc1C(=O)c1c(F)cccc1F
3. Nc1nc(NC2CCN(C(=O)c3ccc(I)cc3)CC2)sc1C(=O)c1c(F)cccc1F
4. Nc1nc(NC2CCN(C(=O)Oc3ccc(Cl)cc3)CC2)sc1C(=O)c1c(F)cccc1F
5. Nc1nc(NC2CCN(C(=O)c3ccc4c(c3)C(=O)OC4=O)CC2)sc1C(=O)c1c(F)cccc1F

67
19
83
81
29
